Test system: F1 hybrid maize plants
ASSAY_TEXT: efficacy field trial for 2,4-D tolerance
Assay type: in vivo
STUDY_CONDITIONS: scale 0 to 100; 2 lb ae/acre at VE-V2, V4, V8; with CTP unless label says no CTP
For each record, write down the corresponding average injury rating, V4 Growth Stage, 2x 2,4-D.

MOLECULE	READING
MON-HT6: engineered oxygenase protein, amino acid sequence SEQ ID NO:31 (protein) MHAALSPLSQKYRFIDVQPLTGVLGAEITGVTLREPLDDNTWNEILDAFHTYQVIYFPGQAITNEQHIAFSRRFGPVDPVPLLKSIEGYPEVQMIRREANESGRVIGDDWHTDSTFLDAPPAAVVMYAREVPPYGGDTGFLSMYSAWDTLSDTMKATIEGLNVVHSATRVFGSLYQAQNRRFSNTSVKVMDVDAGDRETVHPLVVSHPVTGRRALYCNQVYCQRIEGMTDAESKPLLQFLYEHATRFDFTCRVRWKKDQVLVWDNLCTMHRAVPDYAGKFRYLTRTTVAGDKPSR	0.0

Ask: Supply measured average injury rating, V4 Growth Stage, 2x 2,4-D of MON-HT1: engineered oxygenase protein, amino acid sequence SEQ ID NO:14 (protein) MHAALTPLTNKYRFIDVQPLTGVLGAEITGVDLREPLDDSTWNEILDAFHTYQVIYFPGQAITNEQHIAFSRRFGPVDPVPILKSIEGYPEVQMIRREANESSRFIGDDWHTDSTFLDAPPAAVVMRAIEVPEYGGDTGFLSMYSAWETLSPTMQATIEGLNVVHSATKVFGSLYQATNWRFSNTSVKVMDVDAGDRETVHPLVVTHPVTGRRALYCNQVYCQKIQGMTDAESKSLLQFLYEHATKFDFTCRVRWKKDQVLVWDNLCTMHRAVPDYAGKFRYLTRTTVAGDKPSR in your reply.
Reply: 0.0
